# Target Desc: Neutrophil elastase (Homo sapiens)
# Measurement Protocol: Component deacylation rate constant for interaction with human leukocyte elastase
# Settings: read-out: kon (M-1-s-1)
Label rule met when kon is at or above 8000 M⁻¹ s⁻¹; anything below gets rule not met.

- Cc1cc(C)c2c(=O)oc(NC(C)C)nc2c1: rule not met
- Cc1cccc2nc(OCC(C)C)oc(=O)c12: rule not met
- O=c1oc(-c2ccccc2)nc2ccccc12: rule met

[in] Say whether CC(=O)NCc1nc2ccccc2c(=O)o1 shows kon of 8000 M⁻¹ s⁻¹ or more.
[out] rule not met

[in] Say whether CNc1nc2cccc(C)c2c(=O)o1 shows kon of 8000 M⁻¹ s⁻¹ or more.
[out] rule not met

[in] Say whether O=c1oc(C(F)(F)C(F)(F)C(F)(F)F)nc2ccccc12 shows kon of 8000 M⁻¹ s⁻¹ or more.
[out] rule met

[in] Say whether COC(=O)[C@H](Cc1ccc(O)cc1)Nc1nc2ccccc2c(=O)o1 shows kon of 8000 M⁻¹ s⁻¹ or more.
[out] rule not met

[in] Say whether CCCCN(CCCC)c1nc2ccccc2c(=O)o1 shows kon of 8000 M⁻¹ s⁻¹ or more.
[out] rule not met

* * *

# Target Desc: Neutrophil elastase (Homo sapiens)
# Measurement Protocol: Component deacylation rate constant for interaction with human leukocyte elastase
// boundary case: Ki equal to 2000 nM maps to No; strictly smaller maps to Yes

Example results:
- NC(=O)[C@H](Cc1ccccc1)NC(=O)[C@@H]1CCCN1c1nc2ccccc2c(=O)o1: Yes
- Cc1cccc2nc(C(F)(F)F)oc(=O)c12: Yes

[in] Ki strictly < 2000 nM for this compound? Cc1ccc2nc(C)oc(=O)c2c1
[out] No

[in] Ki strictly < 2000 nM for this compound? CCCCN(CCCC)c1nc2ccccc2c(=O)o1
[out] No

[in] Ki strictly < 2000 nM for this compound? CCCNc1nc2ccccc2c(=O)o1 [2-Propylamino-benzo[d][1,3]oxazin-4-one]
[out] Yes

[in] Ki strictly < 2000 nM for this compound? O=c1oc(NCCc2ccccc2)nc2ccccc12
[out] Yes

* * *

# Target Desc: Neutrophil elastase (Homo sapiens, UniProt P08246)
# Sequence (P08246 whole entry): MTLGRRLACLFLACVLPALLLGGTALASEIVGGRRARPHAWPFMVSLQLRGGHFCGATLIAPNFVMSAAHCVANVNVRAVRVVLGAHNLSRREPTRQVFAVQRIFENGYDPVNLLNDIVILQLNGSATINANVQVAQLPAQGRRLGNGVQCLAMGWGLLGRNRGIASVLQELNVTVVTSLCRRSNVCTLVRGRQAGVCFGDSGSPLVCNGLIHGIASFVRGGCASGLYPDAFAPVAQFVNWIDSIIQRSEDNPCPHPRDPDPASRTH
# Measurement Protocol: Component deacylation rate constant for interaction with human leukocyte elastase
# Settings: read-out: kon (M-1-s-1)
kon values, listed per item
Please reply with the bare figure in M⁻¹ s⁻¹ and do not write the unit itself.

Take a look at these entries with their results.
• COC(=O)[C@H](CC(C)C)NC(=O)[C@H](CC(C)C)Nc1nc2cc(C)cc(C)c2c(=O)o1 = 1260
• CC(C)Nc1nc2cc(N(C)C)ccc2c(=O)o1 = 1000
• CCC(C)CNc1nc2cccc(C)c2c(=O)o1 (centres undefined) = 112

Next molecule, please.
[in] Indicate the recorded kon value for this molecule: CC(C)Cc1nc2ccccc2c(=O)o1
[out] 20000

* * *

# Target Desc: Neutrophil elastase (Homo sapiens)
# Measurement Protocol: Component deacylation rate constant for interaction with human leukocyte elastase
koff values, listed per item
Please reply with the bare figure in s⁻¹ and do not write the unit itself.

- COC(=O)[C@@H](CC(C)C)Nc1nc2ccccc2c(=O)o1: 0.00138

[in] Indicate the recorded koff value for this compound: CCOC(=O)[C@H](C)Nc1nc2ccccc2c(=O)o1
[out] 0.00224

[in] Indicate the recorded koff value for this compound: Cc1cc(C)c2c(=O)oc(NC(C)C)nc2c1
[out] 1.51e-05

[in] Indicate the recorded koff value for this compound: CC(C)C[C@H](NC(=O)[C@@H]1CCCN1c1nc2ccccc2c(=O)o1)C(=O)NCC(N)=O
[out] 0.000229

[in] Indicate the recorded koff value for this compound: Cc1cccc2nc(C(F)(F)F)oc(=O)c12
[out] 0.00371

[in] Indicate the recorded koff value for this compound: Cc1cc(N)cc2nc(NC(C)C)oc(=O)c12
[out] 1.78e-05

[in] Indicate the recorded koff value for this compound: NC(=O)[C@H](Cc1ccccc1)NC(=O)[C@@H]1CCCN1c1nc2ccccc2c(=O)o1
[out] 0.000537

[in] Indicate the recorded koff value for this compound: CCCNc1nc2cccc(C)c2c(=O)o1
[out] 0.000339

[in] Indicate the recorded koff value for this compound: CCOc1nc2cccc(C(Br)Br)c2c(=O)o1
[out] 0.00468

[in] Indicate the recorded koff value for this compound: CCc1cccc2c(=O)oc(NC(C)C)nc12
[out] 0.024

[in] Indicate the recorded koff value for this compound: CCCC(C)Nc1nc2cccc(C)c2c(=O)o1 (stereo unspecified)
[out] 0.00371

[in] Indicate the recorded koff value for this compound: COc1cc2nc(SCc3ccccc3)oc(=O)c2cc1OC
[out] 0.0123

[in] Indicate the recorded koff value for this compound: CC(C)Nc1nc2ccccc2c(=O)o1
[out] 0.00309

[in] Indicate the recorded koff value for this compound: CCC(CC)Nc1nc2cccc(C)c2c(=O)o1
[out] 0.00562

[in] Indicate the recorded koff value for this compound: CC(C)Nc1nc2cc(N(C)C)ccc2c(=O)o1
[out] 0.000479

[in] Indicate the recorded koff value for this compound: COc1cc2nc(SCc3c[nH]cn3)oc(=O)c2cc1OC
[out] 0.00759

[in] Indicate the recorded koff value for this compound: CCCCNc1nc2cc(N)ccc2c(=O)o1
[out] 0.00182

[in] Indicate the recorded koff value for this compound: CCCc1cccc2nc(OCC)oc(=O)c12
[out] 7.08e-05

[in] Indicate the recorded koff value for this compound: COC(=O)[C@H](CC(C)C)Nc1nc2ccccc2c(=O)o1
[out] 0.000389

[in] Indicate the recorded koff value for this compound: Cc1cc(N(C)C)cc2nc(NC(C)C)oc(=O)c12
[out] 0.000129
